The reported numbers originate from ChEMBL document CHEMBL4513216.

The entries below come with measured cytotoxicity at 10 µM values attached.
# test.description: Toxicity liver stage against HepG2, at 10uM
# Type: cell-based
# Parameters: test concentration 10 uM, cell line HepG2-A16-CD81EGFP
# protocol.conditions: human, HepG2-A16-CD81EGFP cells; read-out: INHIBITION
Numeric answer only, unit % assumed.

Take a look at these entries with their results.
>  <compound>
COc1ccc(-c2n[nH]cc2CN(C)Cc2nnc(C)o2)c(F)c1

>  <units>
%

>  <cytotoxicity at 10 µM>
-3.01

$$$$
>  <compound>
CCc1nnc(C(C)N(C)Cc2c(C)nn(-c3ccccc3)c2C)o1 (stereo unspecified)

>  <units>
%

>  <cytotoxicity at 10 µM>
-9.85

$$$$
>  <compound>
Cc1nc2c(c(N(C)C)n1)CCN(C(=O)c1ccc(N)nc1)C2

>  <units>
%

>  <cytotoxicity at 10 µM>
-8.26

$$$$

Prompt: // returns reported cytotoxicity at 10 µM for input Cn1ccnc1-c1cn(CCc2nnc(N)s2)nn1
Completion: -4.3

Prompt: Quick one: cytotoxicity at 10 µM of CC1CN(CC2CCCCC2)CCN1c1ccc2nncn2n1 (stereo unspecified) ?
Completion: 13.8

Prompt: // returns reported cytotoxicity at 10 µM for input Cc1ccc(CN2CCC[C@@H]3CN(C(=O)c4ccco4)C[C@@H]32)s1
Completion: -1.05

Prompt: Entry Cc1cc(CNC(=O)N2CCN(c3ccc(Cl)cn3)CC2)c(C)o1 : reported cytotoxicity at 10 µM = ?
Completion: 13.9

Prompt: Look up cytotoxicity at 10 µM: c1ccc(-c2nc(SCc3nnc(C4CC4)o3)n[nH]2)nc1
Completion: -1.78

Prompt: Fill in: cytotoxicity at 10 µM of O=C(C1CCOC1)N1CCN(CCn2cccn2)c2ncccc2C1 (stereo unspecified) is ___
Completion: -104

Prompt: Given COCc1noc(CCC(=O)c2ccc3c(c2)OCCO3)n1 , state its recorded cytotoxicity at 10 µM.
Completion: 0.923

Prompt: Field request: cytotoxicity at 10 µM | item: c1cncc(OC[C@]23COC[C@H]2CN(Cc2nccs2)C3)c1
Completion: -1.43

* * *

# test.description: Toxicity liver stage against HepG2, at 10uM
# Assay type: cell-based
# Design: test concentration 10 uM, cell line HepG2-A16-CD81EGFP
# protocol.conditions: human, HepG2-A16-CD81EGFP cells; read-out: INHIBITION
endpoint.label: cytotoxicity at 10 µM (%)
State the answer as a number, implicitly in %.

Reference set (2 entries):
>  <molecule>
Cc1noc(C)c1C(=O)N1CC[C@H]2C[C@@H](c3nccs3)O[C@@H]2C1

>  <units>
%

>  <value.observed>
-1.62

$$$$
>  <molecule>
CCc1nnsc1C(=O)N(C)Cc1ccco1

>  <units>
%

>  <value.observed>
-45

$$$$

Prompt: Return reported cytotoxicity at 10 µM; argument: CCc1c(C)nc(SCc2ccccn2)[nH]c1=O
Completion: 9.56

Prompt: Give its cytotoxicity at 10 µM value. Item: Cc1ccc(NC(=O)c2cnc(N3CCN(C)CC3)nc2C)cc1C
Completion: -7.8

Prompt: Name the reported cytotoxicity at 10 µM value associated with the molecule CCc1nc(CN2CCN(C(=O)COCc3ccccc3)CC2)no1
Completion: 2.41

Prompt: # get_value(readout='cytotoxicity at 10 µM', item= Cc1ccc(OCCN(C)Cc2ccc(S(=O)(=O)N(C)C)o2)cc1 )
Completion: -14.8

Prompt: Tell me the measured cytotoxicity at 10 µM of COC(C)c1noc(CN(C)c2ncccn2)n1 (stereo unspecified) , please.
Completion: 7.33
